Where do these numbers come from? They come from ChEMBL document CHEMBL5149994.

tested on: MCF7; assay: Cytotoxicity against human MCF7 cells assessed as cell growth inhibition; assay type: functional, cell-based
endpoint_label: IC50
Dear colleague, please send the value followed by its unit.

Example molecules with recorded IC50:
chemical_string | measured_on | result_value
C[C@@H]1O[C@@H](N2C(=O)/C(=C3\Nc4ccccc4C3=O)c3ccccc32)[C@H](O)[C@H](O)[C@H]1O | MCF7 | 760 nM
C[C@@H]1O[C@H](N2C(=O)/C(=C3\Nc4ccccc4C3=O)c3ccccc32)[C@H](O)[C@H](O)[C@H]1O | MCF7 | 670 nM

Then this molecule:
Lab note: need IC50 for `C[C@@H]1O[C@H](N2C(=O)/C(=C3\Nc4ccc(Cl)cc4C3=O)c3ccccc32)[C@H](O)[C@H](O)[C@H]1O` on MCF7, anyone have it?
6960 nM

###

tested on: MCF7; test: Antiproliferative activity against human MCF7 cells assessed as cell growth inhibition; assay type: functional, cell-based
endpoint_label: pIC50
Scale: pIC50 equals -log10([C]), with [C] in mol/L.

What measured pIC50 goes with `COc1ccc2c(c1)/C(=C1/Nc3ccccc3/C1=N\OCCO[C@@H]1O[C@H](CO)[C@@H](O)[C@H](O)[C@H]1O)C(=O)N2` ?
5.92

###

biological target: UniProt:P36888; assay: Inhibition of recombinant FLT3 (unknown origin) by HTRF assay
Sequence (P36888 whole entry): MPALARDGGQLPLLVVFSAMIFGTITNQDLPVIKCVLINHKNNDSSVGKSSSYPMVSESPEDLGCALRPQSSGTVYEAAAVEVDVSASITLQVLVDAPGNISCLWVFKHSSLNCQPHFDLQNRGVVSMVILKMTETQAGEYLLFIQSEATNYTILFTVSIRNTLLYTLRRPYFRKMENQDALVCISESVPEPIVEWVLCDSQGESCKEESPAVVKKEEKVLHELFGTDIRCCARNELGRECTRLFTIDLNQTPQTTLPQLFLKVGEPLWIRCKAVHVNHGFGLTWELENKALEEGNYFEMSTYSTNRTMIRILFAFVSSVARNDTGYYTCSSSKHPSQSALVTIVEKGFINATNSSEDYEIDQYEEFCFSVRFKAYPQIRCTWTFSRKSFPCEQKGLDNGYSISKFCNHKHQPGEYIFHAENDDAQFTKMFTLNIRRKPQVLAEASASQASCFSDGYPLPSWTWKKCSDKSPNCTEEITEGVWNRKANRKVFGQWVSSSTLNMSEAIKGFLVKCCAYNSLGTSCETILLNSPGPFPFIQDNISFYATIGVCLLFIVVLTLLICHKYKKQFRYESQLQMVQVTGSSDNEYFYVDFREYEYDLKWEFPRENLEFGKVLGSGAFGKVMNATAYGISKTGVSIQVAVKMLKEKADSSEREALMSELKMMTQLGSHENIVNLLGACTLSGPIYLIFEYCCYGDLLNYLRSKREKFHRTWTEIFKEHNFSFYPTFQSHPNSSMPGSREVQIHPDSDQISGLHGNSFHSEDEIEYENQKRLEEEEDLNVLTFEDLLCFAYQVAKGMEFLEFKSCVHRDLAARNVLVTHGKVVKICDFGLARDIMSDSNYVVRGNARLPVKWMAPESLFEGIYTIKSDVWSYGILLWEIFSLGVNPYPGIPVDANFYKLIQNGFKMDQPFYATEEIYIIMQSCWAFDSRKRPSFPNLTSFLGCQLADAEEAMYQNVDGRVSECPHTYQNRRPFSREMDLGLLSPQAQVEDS
endpoint_label: IC50 (nM)
Please reply with the bare figure in nM and do not write the unit itself.

Given the compound `O=C1Nc2ccc(C(=O)O)cc2/C1=C1/Nc2ccccc2/C1=N\O` , what is its reported IC50?
7.89

###

test: Cytotoxicity against human SK-MEL-29 cells assessed as cell growth inhibition measured after 24 hrs by WST-1 assay; assay type: functional, cell-based; settings: SK-MEL-29, 24 h
endpoint_label: pIC50
Convention used: pIC50 is expressed as -log10 of the molar concentration.

chemical_string | pIC50
C[C@@H]1O[C@H](N2C(=O)/C(=C3\Nc4ccccc4C3=O)c3ccccc32)[C@H](O)[C@H](O)[C@H]1O | 4.06
C[C@@H]1O[C@H](N2C(=O)/C(=C3\Sc4ccccc4C3=O)c3ccccc32)[C@H](O)[C@H](O)[C@H]1O | 5.20

Could you now consider this next molecule?
Item `O=C1/C(=C2/C(=O)N([C@H]3O[C@H](CO)[C@@H](O)[C@H](O)[C@@H]3O)c3ccccc32)Sc2ccccc21` has what recorded pIC50?
5.40

###

system: K562; test: Antiproliferative activity against human K562 cells assessed as cell growth inhibition measured after 48 hrs by CCK-8 assay; type: functional, cell-based; details: K562, 48 h
Overview of reported IC50 across a group of compounds:
Just the number in µM, nothing appended.

compound | IC50 / µM
O=C1CCC(N2C(=O)c3cccc(-n4cc(COCCOCCOCCN5C(=O)/C(=C6\Nc7ccccc7C6=O)c6ccccc65)nn4)c3C2=O)C(=O)N1 (configuration not stated) | 42.2

Give IC50 (K562) of the following compound: Cc1cn(C2CC(n3cc(COCCOCCOCCN4C(=O)/C(=C5\Nc6ccccc6C5=O)c5ccccc54)nn3)C(CO)O2)c(=O)[nH]c1=O (configuration not stated)
34.2

###

assay: Antiproliferative activity against human NOZ cells assessed as cell growth inhibition measured upto 72 hrs by CCK-8 assay; type: functional, cell-based
endpoint_label: pIC50
When answering, recall that pIC50 equals minus log10 of the concentration in mol/L, and write that number alone.

Could you tell me which pIC50 is on file for `O=C1Nc2ccccc2/C1=C1/Nc2ccccc2/C1=N\O` ?
5.36
